Where do the numbers come from? From patent US20260070987A1.

Biological target: equine FcRn (large alpha subunit p51) / equine beta-2-microglobulin complex, biotinylated (equine) (UniProt P30441)
Assay: SPR (Biacore), pH 6
Each entry below lists one item and its recorded pKd value.
# pKd = -log10(concentration in molar units)

[
  {
    "BINDER": "equine IgG4 M428F (antibody, part only; not given: variable domains, not shown: another chain or arm of the molecule) constant: ASTTAPKVFPLASHSAATSGSTVALGCLVSSYFPEPVTVSWNSGALTSGVHTFPSVLQSSGLYSLSSMVTVPASSLKSQTYICNVAHPASSTKVDKKIVIKECNGGCPAECLQVGPSVFIFPPKPKDVLMISRTPTVTCVVVDVGHDFPDVQFNWYVDGVETHTATTEPKQEQFNSTYRVVSVLPIQHKDWLSGKEFKCKVNNKALPAPVERTISKPTGQPREPQVYVLAPHRDELSKNKVSVTCLVKDFYPTDIDIEWKSNGQPEPETKYSTTPAQLDSDGSYFLYSKLTVETNRWQQGTTFTCAVFHEALHNHYTEKSVSKSPGK",
    "pKd": 7.60
  }
]

Continue with the next binder.
Asked: For the binder equine IgG1 M428V (antibody, part only; not given: variable domains, not shown: another chain or arm of the molecule) constant: ASTTAPKVFALAPGCGTTSDSTVALGCLVSGYFPEPVKVSWNSGSLTSGVHTFPSVLQSSGFYSLSSMVTVPASTWTSETYICNVVHAASNFKVDKRIEPIPDNHQKVCDMSKCPKCPAPELLGGPSVFIFPPNPKDTLMITRTPEVTCVVVDVSQENPDVKFNWYMDGVEVRTATTRPKEEQFNSTYRVVSVLRIQHQDWLSGKEFKCKVNNQALPQPIERTITKTKGRSQEPQVYVLAPHPDELSKSKVSVTCLVKDFYPPEINIEWQSNGQPELETKYSTTQAQQDSDGSYFLYSKLSVDRNRWQQGTTFTCGVVHEALHNHYTQKNVSKNPGK , what pKd is on record?
Given back: 7.18
